target: Nuclear receptor subfamily 1 group I member 2 (Homo sapiens); assay: NVS_NR_hPXR: NovaScreen (NVS) Nuclear Receptor Binding Assay for human Pregnane X Receptor (PXR) (AID 2283365);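 also: a drop in FRET signal versus DMSO baseline means the compound binds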
Results filed as inconclusive are left out. Calls of active or inactive are those of the source. The calls were made as follows: active = hit-call score of the fitted dose curve at least 0.9, where 1 is the maximum; inconclusive = response in the unintended direction; inactive = score below 0.9.
I would appreciate it if you answered using one of these outcomes: YES = active, NO = inactive

Tell me the recorded outcome of this test for O=C1NC(=O)C(c2ccccc2)(c2ccccc2)N1 .
NO

Given CN(C)C(=O)NC1(c2ccccc2)CCN(CC[C@@]2(c3ccc(F)c(F)c3)CN(C(=O)c3ccccc3)CCO2)CC1 , state the outcome it received in this test.
NO

Field: outcome | Entry: COc1ccc(C(=O)Nc2nc3ccccc3c(NCc3ccccc3)c2C#N)cc1
NO

State the result this test recorded for CC(C)(C)c1ccccc1 .
NO

# fetch the recorded call for CSc1ccc(Oc2ccc(S(N)(=O)=O)cc2CN(C)C)cc1C here
NO

Called result for CC(=O)O[C@]1(C(C)=O)CC[C@H]2[C@@H]3C=C(Cl)C4=CC(=O)[C@@H]5C[C@@H]5[C@]4(C)[C@H]3CC[C@@]21C
NO

Give the logged outcome of this assay for the following compound: CCCCCCCCCCCCCCOS(=O)(=O)O
YES

Outcome logged for O=C1c2c(O)cccc2Cc2cccc(O)c21 in this assay:
NO

Dear all, I need the recorded test outcome for COc1ccc(OC(F)(F)F)cc1CN[C@H]1CCCN[C@H]1c1ccccc1 , thank you.
YES

For this compound, state the assay outcome: CC(C)OC(=O)C(C)(C)Oc1ccc(C(=O)c2ccc(Cl)cc2)cc1
YES

meta.source: PubChem BioAssay (EPA / NIEHS)
